tested on: Bacillus subtilis; test: Antibacterial activity against Bacillus subtilis ATCC 6633 after 24 hrs; format: functional; settings: ATCC 6633, 24 h
Entries and their MIC values follow.
Answer in µg/mL, number only, no unit symbol.

Example compounds with recorded MIC:
Oc1ccc(Cc2cc(Br)c(O)c(Br)c2)cc1Br    6.25
Oc1c(Br)cc(Br)cc1Cc1cc(Br)cc(Br)c1O    1.56

Problem: Item `Oc1cc(Cc2cc(O)c(O)c(Br)c2Br)c(Br)c(Br)c1O` has what recorded MIC?
Result: 25

Problem: Item `COCc1cc(O)c(O)c(Br)c1Cc1cc(O)c(O)c(Br)c1Br` has what recorded MIC?
Result: 25

Problem: Item `Oc1ccc(Cc2ccc(O)c(Br)c2)cc1Br` has what recorded MIC?
Result: 12.5
